This section presents molecules with their documented pEC50 values.
# Test system: HCV genotype 1b replicon
# assay overview: HCV replicon assay (HCV 1b_Huh-Luc/Neo-ET cell line, luciferase readout)
# Format: cell-based
# experimental setup: Hepatitis C virus; bicistronic genotype 1b replicon in Huh 7 cells, 72 h incubation, luciferase enzyme activity; read-out: Inhibition of HCV genotype 1b
pEC50: −log10 of the molar value.

CC(C)(C)OC(=O)N[C@@H](C(=O)N1CCC[C@H]1COc1ccc(-c2ccc(-c3cnc([C@@H]4CCCN4C(=O)[C@H](NC(=O)OC(C)(C)C)c4ccccc4)[nH]3)cc2)cc1)c1ccccc1; > 9.00
COC(=O)N[C@@H](C(=O)N1CCC[C@H]1c1ncc(-c2ccc(-c3ccc(NC(=O)[C@@H]4CCCN4C(=O)[C@@H](c4ccccc4)N(C)C)cc3)cc2)[nH]1)c1ccccc1; > 9.00
COC(=O)N[C@H](C(=O)N[C@@H](C)c1ncc(-c2ccc(-c3ccc(C(=O)NC[C@@H]4CCCN4C(=O)[C@@H](NC(=O)OC)C(C)C)nc3)cc2)[nH]1)C(C)C; 8.00 to 9.00

Recorded pEC50 for `COC(=O)N[C@H](C(=O)N1CCC[C@H]1CNC(=O)c1ccc(-c2ccc3c(c2)CCc2nc([C@@H]4CCCN4C(=O)[C@@H](NC(=O)OC)C(C)C)[nH]c2-3)cc1)C(C)C` , please?
> 9.00

Lookup `CC(C)(C)OC(=O)N[C@@H](C(=O)N1CCOC[C@H]1C(=O)Nc1ccc(-c2ccc(-c3cnc([C@@H]4COCCN4C(=O)[C@H](NC(=O)OC(C)(C)C)c4ccccc4)[nH]3)cc2)cc1)c1ccccc1`
> 9.00
